- Test system: A431
- Test method notes: filipin (cholesterol) integrated intensity within LBPA endosomes, Z-score; higher = more cholesterol in LBPA endosomes
- Assay setup: compound concentration in added solution (µM; 5 µl added to 20 µl cells): 10; 18 h
Structures can show the parent of a compound that is named as a salt.
Measure: filipin (z-score)
Respond numerically, and do not add a unit to the figure.

A431 filipin (z-score) of Fc1ccc(C(c2ccc(F)cc2)N2CCN(C/C=C/c3ccccc3)CC2)cc1 [Flunarizine dihydrochloride] is 0.627

A431 filipin (z-score) of CC(=O)O[C@]1(C(C)=O)CC[C@H]2[C@@H]3C=C(Cl)C4=CC(=O)CC[C@]4(C)[C@H]3CC[C@@]21C [Chlormadinone acetate] is 0.102

A431 filipin (z-score) of Nc1cc(-c2ccncc2)c[nH]c1=O [Amrinone] is -0.461

A431 filipin (z-score) of CC[C@H]1OC(=O)[C@H](C)[C@@H](O[C@H]2C[C@@](C)(OC)[C@@H](O)[C@H](C)O2)[C@H](C)[C@@H](O[C@@H]2O[C@H](C)C[C@H](N(C)C)[C@H]2O)[C@](C)(O)C[C@@H](C)[C@@H]2N[C@@H](COCCOC)O[C@H]([C@H]2C)[C@]1(C)O [Dirithromycin] is -0.507

A431 filipin (z-score) of CC(C)(C)NC(=O)[C@H]1CC[C@H]2[C@@H]3CC[C@H]4NC(=O)C=C[C@]4(C)[C@H]3CC[C@]12C [Finasteride] is -0.256

A431 filipin (z-score) of O=C(O)c1cc(=O)c2c(OCC(O)COc3cccc4oc(C(=O)O)cc(=O)c34)cccc2o1 [Cromolyn disodium salt] is -0.425

A431 filipin (z-score) of Cc1c(C)c2c(c(C)c1O)CCC(C)(COc1ccc(CC3SC(=O)NC3=O)cc1)O2 (stereo not given) [Troglitazone] is -0.459

A431 filipin (z-score) of CC(C)(C)NC[C@H](O)COc1ccccc1C1CCCC1 [Penbutolol sulfate] is 1.3

A431 filipin (z-score) of N#Cc1ccc(C(c2ccc(C#N)cc2)n2cncn2)cc1 [Letrozole] is -0.552

A431 filipin (z-score) of CCc1nn(CCCN2CCN(c3cccc(Cl)c3)CC2)c(=O)n1CCOc1ccccc1 [Nefazodone HCl] is 0.483
